- Tested Target: HLA-A*02:03
- Assay Explanation: IEDB peptide-MHC binding, purified MHC/competitive/radioactivity; bounds were set here for any values at or beyond the usual limits of such assays
- Test Parameters: source organism: Influenza A virus
pIC50: −log10 of the molar value.
Label rule, in plain words: pIC50 of 6 and up is YES, under 6 is NO.

Answered cases to consult:
| Sequence Text | Label |
| --- | --- |
| RMGAVTTEV | YES |
| LAKSVFNSL | NO |
| MQALQLLLEV | YES |
| RLNKRSYLI | YES |
| NTSQRGIL | NO |
| SAFDERRNKYL | NO |
| FVFTLTVPS | YES |
| TSFFYRYGFV | YES |

Exam item: decide whether the reported pIC50 for `HANNSTDTV` is at least 6. NO

Exam item: decide whether the reported pIC50 for `GLISLILQI` is at least 6. YES

Exam item: decide whether the reported pIC50 for `MQIRGFVYFV` is at least 6. YES

Exam item: decide whether the reported pIC50 for `NALLKHRFEII` is at least 6. NO

Exam item: decide whether the reported pIC50 for `TLNTMTKDA` is at least 6. YES

----------
- Tested Target: HLA-A*02:01
- Assay Explanation: IEDB peptide-MHC binding, purified MHC/competitive/radioactivity; bounds were set here for any values at or beyond the usual limits of such assays
- Test Parameters: source organism: Vaccinia virus WR
Reported Metric: IC50 (nM)
Give bare numbers, in nM.

Answered examples (3):
| Sequence Text | Unit Abbrev | IC50 |
| --- | --- | --- |
| NVFISPASI | nM | 136 |
| KLRPNSFWFV | nM | 2 |
| TICLKNEGV | nM | 547 |

State recorded IC50 for all listed sequences.
1. VLLTYFCFV
2. MLYQLLEAV
3. GLKKIIQRV
4. PTWLGAAITL

1: 0.28; 2: 8.2; 3: 1700; 4: 4810

State recorded IC50 for all listed sequences.
1. CLCSFHNDA
2. QIMECSRML
3. YLLDDVLYT
4. GLSGDSERV
5. MQKFTILEYL
6. ELQKFSFKI

1: 4140; 2: 103; 3: 1.3; 4: 626; 5: 3730; 6: 167

State recorded IC50 for all listed sequences.
1. FVIVIYIFT
2. KMAVEVGSI
3. AVIIMAINV
4. FTDCRTIDAI
5. YQYIFLSFFA
6. AAITLVVISV
7. DTGKKELALT
8. FVTDYVHEGV

1. 3470
2. 155
3. 963
4. 1840
5. 19
6. 369
7. 1680
8. 48

State recorded IC50 for all listed sequences.
1. FVATFRDMLL
2. DIIDLLLPST
3. YIDALAKNA
4. TINVNSLAL
5. FTLTGSPSST
6. DVSLSAYII
7. KLYTIVSTL

1: 16; 2: 949; 3: 473; 4: 1530; 5: 4460; 6: 1500; 7: 15

----------
- Tested Target: HLA-A*02:02
- Assay Explanation: IEDB peptide-MHC binding, purified MHC/competitive/radioactivity; bounds were set here for any values at or beyond the usual limits of such assays
- Test Parameters: source organism: Vaccinia virus WR
The label true is reserved for IC50 strictly under 100 nM; false covers values equal to or above it.

Answered cases to consult:
| Sequence Text | Label |
| --- | --- |
| GMYYPTNDI | true |
| QMAGVEVRYI | true |
| SLSNLDFRL | false |
| SVIFYFISI | false |
| TILATLNTL | false |
| WLTPFEKEFT | false |
| LLVQYGAKI | false |
| TISGNIYSA | true |

In plain terms, does `RQDYRRSINV` come in under 100 nM for IC50? false

In plain terms, does `AAITLVVISV` come in under 100 nM for IC50? false

In plain terms, does `WIKDIMTST` come in under 100 nM for IC50? false

In plain terms, does `ILATLNTLIT` come in under 100 nM for IC50? true

In plain terms, does `STSPTRTWKV` come in under 100 nM for IC50? false

In plain terms, does `LLNMRDLIV` come in under 100 nM for IC50? false

----------
- Tested Target: HLA-A*68:02
- Assay Explanation: IEDB peptide-MHC binding, cellular MHC/competitive/fluorescence; bounds were set here for any values at or beyond the usual limits of such assays
- Test Parameters: source organism: Vaccinia virus WR
Reported Metric: pIC50
Numbers only, as −log10 of the molar value.

Answered examples (3):
| Sequence Text | pIC50 |
| --- | --- |
| SLDQTHIKTI | 5.12 |
| ILGIIITVGM | 4.42 |
| GTKGKLYIAL | 5.12 |

State recorded pIC50 for all listed sequences.
1. YIEDELRRAA
2. ELTSNCTRTT
3. GMQFDKVYL
4. KVIKLVKSLV
5. KIKQTGINNV
6. ALTDVEKRIL
7. ALKNSQAELT

4.61
5.30
4.76
4.79
4.44
4.86
4.32

----------
Hi there, I'd appreciate the recorded pIC50 for every entry that follows.
- Tested Target: HLA-A*02:01
- Assay Explanation: IEDB peptide-MHC binding, purified MHC/competitive/radioactivity; bounds were set here for any values at or beyond the usual limits of such assays
- Test Parameters: source organism: Vaccinia virus WR
One number for each entry, as −log10 of the molar value.

| Sequence Text | Tested Target | Observed Result |
| --- | --- | --- |
| LLYLILFLL | HLA-A*02:01 | 5.66 |
| FIDTVSVYT | HLA-A*02:01 | 6.64 |
| GLDERFVEEL | HLA-A*02:01 | 6.48 |
| IMFKDDNIIM | HLA-A*02:01 | 6.85 |
| LIYRQLTSNV | HLA-A*02:01 | 6.18 |
| YIIRYPVKRI | HLA-A*02:01 | 5.99 |
| PLYEVNSTM | HLA-A*02:01 | 5.34 |
| FVFRSPFIVI | HLA-A*02:01 | 6.77 |
| LMMTLPSIFL | HLA-A*02:01 | 9.70 |
| FVATFRDML | HLA-A*02:01 | 5.65 |

State recorded pIC50 for all listed sequences.
1. YMVTDKTAYI
2. LIQEIVHEV
3. NTISGNIYSA

8.32
7.48
6.19

----------
- Tested Target: HLA-A*68:02
- Assay Explanation: IEDB peptide-MHC binding, cellular MHC/competitive/fluorescence; bounds were set here for any values at or beyond the usual limits of such assays
- Test Parameters: source organism: SARS-CoV1
pIC50: −log10 of the molar value.
Label rule, in plain words: pIC50 of 5 and up is criterion met, under 5 is criterion not met.

Answered cases to consult:
| Sequence Text | Label |
| --- | --- |
| LMWFIISIV | criterion not met |
| RILGAGCFV | criterion met |
| FLWLLWPVTL | criterion met |
| ALVSGTATA | criterion not met |
| FLFLAWIMLL | criterion met |
| ALSGVFCGV | criterion not met |
| IAMWLLLLSI | criterion not met |
| AIYVFCISL | criterion met |
| SQMETDFLEL | criterion not met |
| LVTSFLLMIV | criterion met |

Exam item: decide whether the reported pIC50 for `FLYIIKLVFL` is at least 5. criterion not met

Exam item: decide whether the reported pIC50 for `YALCTLLHL` is at least 5. criterion met

Exam item: decide whether the reported pIC50 for `VLTHGLASV` is at least 5. criterion met

Exam item: decide whether the reported pIC50 for `ALDGVLSTFV` is at least 5. criterion met

Exam item: decide whether the reported pIC50 for `KLWAQCVQL` is at least 5. criterion not met

Exam item: decide whether the reported pIC50 for `IMLIIFWFSL` is at least 5. criterion not met

----------
Hi there, I'd appreciate the recorded pIC50 for every entry that follows.
- Tested Target: HLA-A*24:02
- Assay Explanation: IEDB peptide-MHC binding, purified MHC/competitive/radioactivity; bounds were set here for any values at or beyond the usual limits of such assays
- Test Parameters: source organism: Vaccinia virus WR
Numbers only, as −log10 of the molar value.

Answered examples (4):
| Sequence Text | Observed Result |
| --- | --- |
| FQESFYEDI | 6.36 |
| RQVSVKLLI | 5.59 |
| LQQNNSFII | 5.63 |
| AQQFCQYLI | 6.50 |

Here is the next item to consider.
Could you share which pIC50 value was measured for `VQYRILPMII` ? 5.79

----------
- Tested Target: HLA-A*02:03
- Assay Explanation: IEDB peptide-MHC binding, purified MHC/competitive/radioactivity; bounds were set here for any values at or beyond the usual limits of such assays
- Test Parameters: source organism: Vaccinia virus WR
Reported Metric: IC50
A complete answer gives the number and then names the unit.

Answered examples (8):
| Sequence Text | IC50 |
| --- | --- |
| KLPTWLGAA | 8 nM |
| DAMIHKTYI | 1520 nM |
| STAEQLSKYV | 1870 nM |
| GIYNCCESNI | 140 nM |
| FQESFYEDI | 4420 nM |
| LISFFGLFDI | 108 nM |
| GIRCVSNLDI | 3870 nM |
| DVFRPLFDFV | 2570 nM |

State recorded IC50 for all listed sequences.
1. IAVANCVRNL
2. FAFIDFSKST
3. ITYCLVTHM
4. NITTLLNET
5. IIAVFDSKLI
6. SMYVIPDELI
7. GILIYDDNI
8. IIYSKAGNI

1: 467 nM; 2: 2410 nM; 3: 2330 nM; 4: 2900 nM; 5: 595 nM; 6: 114 nM; 7: 1700 nM; 8: 13 nM

State recorded IC50 for all listed sequences.
1. AITLVVISVI
2. ELLEMKYAL
3. NTLISSDGA
4. GIIITVGMLI
5. RAAIDRQVSV

1. 786 nM
2. 863 nM
3. 3570 nM
4. 595 nM
5. 41 nM

State recorded IC50 for all listed sequences.
1. FIMRNFLRSI
2. RVTTELNIV
3. ILSNKLLYAA
4. VLLPFYETL
5. KLDDTGKKEL
6. RVKQWVMDTL

0.12 nM
116 nM
1110 nM
267 nM
139 nM
689 nM

State recorded IC50 for all listed sequences.
1. IINSVSIIL
2. NITRLEVIGL
3. NTIAVITETI
4. SVNASKTINA
5. SIDHCSSFI
6. EAAAATCALV
7. YVILKDPRI

["2900 nM", "95 nM", "56 nM", "731 nM", "13 nM", "248 nM", "203 nM"]
